Source: patent US9260429B2

Biological target: human recombinant serotonin (5-Hydroxytryptamine) 5-HT6 receptor (Homo sapiens)
Construct: expressed in transfected cells; host or cells: human HeLa cells
Sequence (P50406 whole entry): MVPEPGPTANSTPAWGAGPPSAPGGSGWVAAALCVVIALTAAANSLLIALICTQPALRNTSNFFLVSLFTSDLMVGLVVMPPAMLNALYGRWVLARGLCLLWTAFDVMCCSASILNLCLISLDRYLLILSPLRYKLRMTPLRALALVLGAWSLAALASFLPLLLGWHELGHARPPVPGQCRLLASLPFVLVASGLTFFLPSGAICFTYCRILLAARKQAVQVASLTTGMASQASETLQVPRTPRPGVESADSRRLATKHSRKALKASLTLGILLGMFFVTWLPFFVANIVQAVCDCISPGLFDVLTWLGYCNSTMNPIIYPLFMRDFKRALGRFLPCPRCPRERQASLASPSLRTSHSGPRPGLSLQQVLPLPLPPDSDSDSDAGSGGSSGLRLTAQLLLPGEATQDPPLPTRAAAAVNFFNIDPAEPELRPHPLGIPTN
Test: Serotonin 5-HT6 radioligand binding ([3H]LSD)
Settings: 2 h; read-out: Percent Inhibition of ligand binding Serotonin (1 μM ligand concentration) 5-HT6

[
  {
    "compound": "CN1CCc2c(n(CC(=O)N3CCNCC3)c3ccc(Cl)cc23)C1 [Compound 55]",
    "inhibition at 1 µM (%)": 0
  },
  {
    "compound": "C/C(=C\\n1c2c(c3cc(C)ccc31)CCN(C)C2)c1ccc(F)cc1 [Compound 91]",
    "inhibition at 1 µM (%)": 100
  },
  {
    "compound": "Cc1ccc(CCCn2c3c(c4cc(Cl)ccc42)CCN(C)C3)cn1 [Compound 56]",
    "inhibition at 1 µM (%)": -3
  },
  {
    "compound": "Cc1ccc2c(c1)c1c(n2CCC(=O)N2CCCCC2)CN(C)CC1 [Compound 43]",
    "inhibition at 1 µM (%)": 3
  },
  {
    "compound": "CN1CCc2c(n(CCN3CCCCC3)c3ccc(Cl)cc23)C1 [Compound 34]",
    "inhibition at 1 µM (%)": 16
  },
  {
    "compound": "Cc1ccc2c(c1)c1c(n2CC(C)(O)c2ccc(F)cc2)CN(C)CC1 (stereo not drawn) [Compound 61]",
    "inhibition at 1 µM (%)": 61
  },
  {
    "compound": "Cc1ccc2c(c1)c1c(n2CC(O)c2ccccc2)CN(C)CC1 (stereo not drawn) [Compound 67]",
    "inhibition at 1 µM (%)": 51
  },
  {
    "compound": "C/C(=C/n1c2c(c3cc(Cl)ccc31)CCN(C)C2C)c1ccccc1F (stereo not drawn) [Compound 167]",
    "inhibition at 1 µM (%)": 55
  },
  {
    "compound": "Cc1ccc2c(c1)c1c(n2CC(=O)N2CCCCC2)CN(C)CC1 [Compound 57]",
    "inhibition at 1 µM (%)": 6
  },
  {
    "compound": "CN1CCc2c(n(CC(O)c3ccccc3F)c3ccc(Cl)cc23)C1 (stereo not drawn) [Compound 59]",
    "inhibition at 1 µM (%)": 60
  },
  {
    "compound": "Cc1ccc2c(c1)c1c(n2CC(O)c2ccccc2F)CN(C)CC1 (stereo not drawn) [Compound 60]",
    "inhibition at 1 µM (%)": 62
  },
  {
    "compound": "CC1c2c(c3cc(Cl)ccc3n2CCc2ccc(F)cc2)CCN1C (stereo not drawn) [Compound 81]",
    "inhibition at 1 µM (%)": 96
  },
  {
    "compound": "C/C(=C/n1c2c(c3cc(C)ccc31)CCN(C)C2C)c1ccccc1F (stereo not drawn) [Compound 165]",
    "inhibition at 1 µM (%)": 46
  },
  {
    "compound": "CCC1c2c(c3cc(C)ccc3n2/C=C(\\C)c2ccc(F)c(F)c2)CCN1C (stereo not drawn) [Compound 176]",
    "inhibition at 1 µM (%)": 26
  },
  {
    "compound": "C/C(=C\\n1c2c(c3cc(C)ccc31)CCN(C)C2C)c1ccc(Cl)cc1 (stereo not drawn) [Compound 161]",
    "inhibition at 1 µM (%)": 75
  },
  {
    "compound": "CC1c2c(c3cc(Cl)ccc3n2C#Cc2ccc(F)cc2)CCN1C (stereo not drawn) [Compound 128]",
    "inhibition at 1 µM (%)": 90
  },
  {
    "compound": "C/C(=C\\n1c2c(c3cc(C)ccc31)CCN(C)C2)c1ccc(F)c(F)c1 [Compound 109]",
    "inhibition at 1 µM (%)": 72
  },
  {
    "compound": "CCC1c2c(c3cc(C)ccc3n2/C=C(\\C)c2ccc(Cl)cc2Cl)CCN1C (stereo not drawn) [Compound 170]",
    "inhibition at 1 µM (%)": 36
  },
  {
    "compound": "CCC1c2c(c3cc(Cl)ccc3n2CC(C)(O)c2ccc(F)cc2)CCN1C (stereo not drawn) [Compound 79]",
    "inhibition at 1 µM (%)": 27
  },
  {
    "compound": "C/C(=C\\n1c2c(c3cc(Cl)ccc31)CCN(C)C2C)c1ccccc1F (stereo not drawn) [Compound 168]",
    "inhibition at 1 µM (%)": 71
  },
  {
    "compound": "C/C(=C\\n1c2c(c3cc(Cl)ccc31)CCN(C)C2)c1ccc(F)cc1 [Compound 90]",
    "inhibition at 1 µM (%)": 98
  },
  {
    "compound": "C/C(=C\\n1c2c(c3cc(C)ccc31)CCN(C)C2)c1ccc(Cl)c(Cl)c1 [Compound 113]",
    "inhibition at 1 µM (%)": 49
  },
  {
    "compound": "Cc1ccc2c(c1)c1c(n2C#Cc2ccc(Cl)cc2)C(C)N(C)CC1 (stereo not drawn) [Compound 172]",
    "inhibition at 1 µM (%)": 10
  },
  {
    "compound": "COC(=O)Cn1c2c(c3cc(Cl)ccc31)CCN(C)C2 [Compound 54]",
    "inhibition at 1 µM (%)": 8
  },
  {
    "compound": "C/C(=C/n1c2c(c3cc(C)ccc31)CCN(C)C2C)c1ccc(F)c(F)c1 (stereo not drawn) [Compound 175]",
    "inhibition at 1 µM (%)": 77
  },
  {
    "compound": "CN1CCc2c(n(CCCc3ccccc3)c3ccc(Cl)cc23)C1 [Compound 29]",
    "inhibition at 1 µM (%)": 62
  },
  {
    "compound": "CC1c2c(c3cc(Cl)ccc3n2C#Cc2ccc(Cl)cc2)CCN1C (stereo not drawn) [Compound 132]",
    "inhibition at 1 µM (%)": 17
  }
]
